tested on: HT-29; experiment: Inhibition of TNF-alpha-induced adhesion of BCECF-labeled human U937 cells to human HT-29 cells at 10 uM preincubated for 1 hr followed by TNF-alpha challenge measured after 3 hrs by fluorescence microscopic method relative to control; type: functional
just bin them by inhibition at 10 µM: range 1 (below 20%), range 2 (20% to below 50%), range 3 (50% or more)

1. COc1ccc(/C=C2\Cc3cc(O)ccc3C2=O)cc1O range 1
2. O=C1/C(=C/c2cccc(O)c2)Oc2ccccc21 range 3
3. O=C1/C(=C/c2ccccc2O)Cc2ccccc21 range 3

Prompt line: Please let me know in which category the item O=C1/C(=C/c2ccc(Cl)cc2)Cc2cc(O)ccc21 belongs.
Response line: range 1

Prompt line: Sort O=C1/C(=C/c2cccc(F)c2)Cc2ccccc21 into one of the categories.
Response line: range 2

Prompt line: Class for O=C1/C(=C/c2ccccc2O)Oc2ccccc21 ?
Response line: range 3

Prompt line: The entry to classify is COc1ccc(/C=C2\Cc3cccc(O)c3C2=O)cc1O ; which class holds it?
Response line: range 2

###

test system: HT-29; experiment: Inhibition of TNF-alpha-induced adhesion of BCECF-labeled human U937 cells to human HT-29 cells preincubated for 1 hr followed by TNF-alpha challenge measured after 3 hrs by fluorescence microscopic method; assay type: functional, cell-based
Recorded IC50, one value per entry.
A number alone suffices; assume µM.

Previously resolved entries follow.
molecule	assayed.system	readout	units	result.value
O=C1/C(=C/c2ccc(O)cc2)Cc2ccc(O)cc21	HT-29	IC50	µM	0.83
O=C1/C(=C/c2ccc(O)cc2)Oc2cc(O)ccc21	HT-29	IC50	µM	0.5
Nc1ccc(O)c(C(=O)O)c1 [MESALAMINE]	HT-29	IC50	µM	20400

Prompt line: API: value(readout=IC50, system=HT-29) for record O=C1/C(=C/c2ccccc2O)Cc2ccc(O)cc21
Response line: 2.29

Prompt line: Observed IC50 on HT-29 for O=C1/C(=C/c2cccc(O)c2)Oc2ccccc21 , please.
Response line: 3.17

Prompt line: What is its IC50 for HT-29? Entry: O=C1/C(=C/c2cccc(O)c2)Oc2cc(O)ccc21
Response line: 1.68

Prompt line: What reported IC50 corresponds to O=C1/C(=C/c2ccccc2O)Oc2ccccc21 on HT-29?
Response line: 0.95

Prompt line: What reported IC50 corresponds to O=C1/C(=C/c2ccccc2)Cc2ccccc21 on HT-29?
Response line: 5.75

###

system: HT-29; experiment: Inhibition of TNF-alpha-induced adhesion of BCECF-labeled human U937 cells to human HT-29 cells at 10 uM preincubated for 1 hr followed by TNF-alpha challenge measured after 3 hrs by fluorescence microscopic method relative to control; type: functional
Lab note: compare inhibition at 10 µM against 60%. Equal or greater, write satisfied. Smaller, write not satisfied.

Below, 5 compounds whose answers are already recorded.
1. COc1ccc(/C=C2\Cc3c(O)cccc3C2=O)cc1O not satisfied
2. O=C1/C(=C/c2ccc(Cl)o2)Oc2ccccc21 satisfied
3. O=C1/C(=C/c2ccccc2O)Cc2cccc(O)c21 satisfied
4. O=C1/C(=C/c2cccc(O)c2)Oc2cc(O)ccc21 satisfied
5. O=C1/C(=C/c2ccccc2Cl)Oc2cc(O)ccc21 not satisfied

Prompt line: API: above_or_equal(metric=inhibition at 10 µM, cutoff=60%) for item O=C1/C(=C/c2ccc(-c3ccccc3)cc2)Cc2ccccc21
Response line: satisfied

###

tested on: HT-29; assay: Inhibition of TNF-alpha-induced adhesion of BCECF-labeled human U937 cells to human HT-29 cells at 10 uM preincubated for 1 hr followed by TNF-alpha challenge measured after 3 hrs by fluorescence microscopic method relative to control; type: functional
# if value of inhibition at 10 µM reaches 60%, tag met; if it stays below, tag not met

Example results:
compound	assayed.system	category.label
O=C1/C(=C/c2ccccc2Cl)Cc2ccccc21	HT-29	not met
O=C1/C(=C/c2ccc(O)cc2)Cc2ccccc21	HT-29	met
O=C1/C(=C/c2cccc(O)c2)Cc2ccccc21	HT-29	not met

Now, please, on to the next compound.
Prompt line: Hi team, for O=C1/C(=C/c2ccc(Cl)s2)Oc2ccccc21 , is the recorded inhibition at 10 µM at or above 60%?
Response line: met

###

test system: HT-29; test: Inhibition of TNF-alpha-induced adhesion of BCECF-labeled human U937 cells to human HT-29 cells at 10 uM preincubated for 1 hr followed by TNF-alpha challenge measured after 3 hrs by fluorescence microscopic method relative to control; format: functional
readout: inhibition at 10 µM (%)
Your answer should be a plain number; it is taken to be in %.

A selection of reference data follows.
1. O=C1/C(=C/c2cccnc2)Cc2ccccc21 28.7
2. O=C1/C(=C/c2cccc(O)c2)Cc2c(O)cccc21 6.1
3. O=C1/C(=C/c2cccc(OC(F)(F)F)c2)Cc2ccccc21 9.9
4. Nc1ccc(O)c(C(=O)O)c1 3.7
5. O=C1/C(=C/c2ccc(Cl)cc2)Cc2ccc(O)cc21 67.9

# context switch: different compound, same inhibition at 10 µM
Prompt line: Which measured inhibition at 10 µM value corresponds to O=C1/C(=C/c2ccccc2F)Cc2ccccc21 ?
Response line: 27.8

###

tested on: HT-29; assay: Inhibition of TNF-alpha-induced adhesion of BCECF-labeled human U937 cells to human HT-29 cells at 10 uM preincubated for 1 hr followed by TNF-alpha challenge measured after 3 hrs by fluorescence microscopic method relative to control; type: functional
readout: inhibition at 10 µM (%)
Reply numerically in %, unit not repeated.

The following molecules have reported results that may help.
1) O=C1/C(=C/c2ccccc2O)Oc2cc(O)ccc21 53.5
2) O=C1/C(=C/c2cccc(Cl)c2)Cc2ccccc21 -2.1
3) O=C1/C(=C/c2ccc(Cl)o2)Cc2ccccc21 -8.9

Prompt line: Given the entry O=C1/C(=C/c2ccccn2)Cc2ccccc21 , what inhibition at 10 µM was observed with HT-29?
Response line: 21.9

Prompt line: Give the reported inhibition at 10 µM for O=C1/C(=C/c2cccc(C(F)(F)F)c2)Cc2ccccc21 (system: HT-29).
Response line: 54.9

Prompt line: Given the entry O=C1/C(=C/c2ccc(O)cc2)Cc2c(O)cccc21 , what inhibition at 10 µM was observed with HT-29?
Response line: -1.7

Prompt line: Lookup: inhibition at 10 µM / HT-29 / O=C1/C(=C/c2cccc(O)c2)Cc2cccc(O)c21
Response line: 60.5

Prompt line: // fetch HT-29 inhibition at 10 µM for O=C1/C(=C/c2ccccc2Cl)Oc2ccccc21
Response line: 50.7

Prompt line: inhibition at 10 µM of O=C1/C(=C/c2ccccc2O)Cc2c(O)cccc21 on HT-29?
Response line: 30.3

Prompt line: Request: inhibition at 10 µM, test system HT-29, entry O=C1/C(=C/c2ccc(O)cc2)Cc2cc(O)ccc21
Response line: 45.4

Prompt line: Request - read-out inhibition at 10 µM | tested on HT-29 | molecule O=C1/C(=C/c2ccc(O)cc2)Cc2ccc(O)cc21
Response line: 80.3

Prompt line: Kindly state the measured inhibition at 10 µM obtained for O=C1/C(=C/c2ccccc2O)Cc2ccc(O)cc21 with HT-29.
Response line: 71.3

###

tested on: HT-29; assay: Inhibition of TNF-alpha-induced adhesion of BCECF-labeled human U937 cells to human HT-29 cells at 10 uM preincubated for 1 hr followed by TNF-alpha challenge measured after 3 hrs by fluorescence microscopic method relative to control; type: functional
Reported values of inhibition at 10 µM for individual entries
Could you give me the number in %? Just the number is fine.

Here are 5 molecules together with their reported answers.
1) O=C1/C(=C/c2ccc(Cl)cc2)Cc2cccc(O)c21 78.4
2) O=C1/C(=C/c2cccc([N+](=O)[O-])c2)Cc2ccccc21 46.5
3) O=C1/C(=C/c2ccc(Cl)s2)Cc2ccccc21 5.7
4) O=C1/C(=C/c2cccc(O)c2)Cc2cc(O)ccc21 50.2
5) O=C1/C(=C/c2cccc(O)c2)Cc2ccc(O)cc21 62.7

The record that follows has no inhibition at 10 µM shown yet.
Prompt line: Look up inhibition at 10 µM with HT-29 for this molecule: O=C1/C(=C/c2ccc(F)cc2)Cc2ccccc21
Response line: 7.1

###

system: HT-29; assay: Inhibition of TNF-alpha-induced adhesion of BCECF-labeled human U937 cells to human HT-29 cells preincubated for 1 hr followed by TNF-alpha challenge measured after 3 hrs by fluorescence microscopic method; type: functional, cell-based
Each entry below carries its reported IC50.
Only the number, expressed in µM, is required.

Solved cases below.
1. O=C1/C(=C/c2ccc(Cl)cc2)Cc2cccc(O)c21 1.64
2. O=C1/C(=C/c2ccc(O)cc2)Cc2ccccc21 1.53

Pending molecule:
Prompt line: Name the recorded IC50 for O=C1/C(=C/c2ccc(Cl)s2)Oc2ccccc21 .
Response line: 3.72

###

test system: HT-29; experiment: Inhibition of TNF-alpha-induced adhesion of BCECF-labeled human U937 cells to human HT-29 cells at 10 uM preincubated for 1 hr followed by TNF-alpha challenge measured after 3 hrs by fluorescence microscopic method relative to control; assay type: functional
# reported inhibition at 10 µM; entries follow
Lab book: enter the figure in %, no units written.

Example entries and their recorded answers appear below.
compound	assayed.system	units	inhibition at 10 µM
O=C1/C(=C/c2ccc(Cl)cc2)Oc2cc(O)ccc21 [6-HYDROXY-4'-CHLORO AURONE]	HT-29	%	49
O=C1/C(=C/c2ccc(Cl)cc2)Oc2ccccc21	HT-29	%	68.7
O=C1/C(=C/c2ccc(O)cc2)Cc2cccc(O)c21	HT-29	%	69.8
O=C1/C(=C/c2cccc(-c3ccccc3)c2)Cc2ccccc21	HT-29	%	33.4
O=C1/C(=C/c2ccc(OC(F)(F)F)cc2)Cc2ccccc21	HT-29	%	34.5
O=C1/C(=C/c2ccc(O)cc2)Oc2ccccc21	HT-29	%	63.6
O=C1/C(=C/c2ccccc2)Cc2ccccc21	HT-29	%	55.3

We next turn to a different compound, shown below.
Prompt line: What measured inhibition at 10 µM is associated with COc1ccc(/C=C2\Cc3ccc(O)cc3C2=O)cc1O on HT-29?
Response line: 12
